The reported numbers originate from PubChem BioAssay AID2013.

# Measured on: G-protein coupled receptor 55 (Homo sapiens) (UniProt Q9Y2T6)
# Sequence (Q9Y2T6 whole entry, looked up): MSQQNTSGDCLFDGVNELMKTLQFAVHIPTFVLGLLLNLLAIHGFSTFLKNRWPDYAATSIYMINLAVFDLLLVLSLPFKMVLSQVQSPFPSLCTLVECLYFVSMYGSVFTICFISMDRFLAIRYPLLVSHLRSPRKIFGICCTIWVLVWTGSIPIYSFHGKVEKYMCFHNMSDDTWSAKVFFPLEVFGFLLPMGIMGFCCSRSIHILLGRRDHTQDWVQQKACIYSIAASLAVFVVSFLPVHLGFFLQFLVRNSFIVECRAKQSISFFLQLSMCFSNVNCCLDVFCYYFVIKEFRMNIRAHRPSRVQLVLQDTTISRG
# Assay text: GPR55 antagonists blocking LPI-driven arrestin recruitment, primary screen, imaging, U2OS, beta-arrestin-GFP, LPI agonist (AID 2013);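 also: U2OS cells stably carrying GPR55 and arrestin-GFP stimulated by 5 µM LPI near EC80; imaged beta-arrestin-GFP aggregate spots per cell after agonist stimulation; plate controls were LPI-stimulated DMSO wells for no effect and DMSO wells without LPI for full effect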
# Test settings: U2OS GPR55 beta-arrestin-GFP translocation imaging, LPI antagonism; at 10 µM; active compounds read high
Hit rate of the full screen: of about 290,000 compounds, about 370 (0.13%) were called active. This is one part of a sample in which actives are shown more often than they occur. Measured potencies and affinities stand elsewhere.
Parameter measured: inhibition (%)
Report the value in % with no unit label.

> print(dat)
                                   molecule  parameter.measured  value.observed
1  CC12CCC3C(CC=C4CC(O)CCC43C)C1C/C(=C\c1ccccc1F)C2=O (stereo not drawn)          inhibition             1.4
2    COc1ccccc1-n1c(-c2ccccc2)nc2ccccc2c1=O          inhibition            -1.7
3  Cc1ccc2c(c1Cl)NC(C(=O)O)C1CC(Sc3ccccc3[N+](=O)[O-])C(Cl)C21 (stereo not drawn)          inhibition            70.4
4  CCc1cc(=O)oc2cc(OCC(=O)N3C[C@H]4C[C@@H](C3)c3cccc(=O)n3C4)c(Cl)cc12          inhibition           -10.3
5  O=C1NC(=O)N(Cc2ccccc2)C(=O)/C1=C\c1ccco1          inhibition            22.2
6        CCCc1nc2ccccc2c(=O)n1-c1ccc(OC)cc1          inhibition            12.2
7         Oc1ccc(C(=C(Cl)Cl)c2ccc(O)cc2)cc1          inhibition            94.8
8  Cc1cc(OCC(=O)N[C@@H](Cc2ccccc2)C(=O)O)c2c3c(c(=O)oc2c1)CCC3          inhibition             1.6

May I ask what inhibition has been recorded for CN1CCN(c2nc(N(C)C)oc(=O)c2C#N)CC1 ?
2.9

Now try O=C1NC(=O)N(CCc2ccc(F)cc2)C(=O)/C1=C/c1cccs1 .
84.1

And for O=C(O)c1cccc2c1NC(C(=O)O)C1CC(Sc3ccccc3[N+](=O)[O-])C(Cl)C21 (stereo not drawn) ?
17.5

Thanks! And O=S(=O)(c1ccc(O)cc1)c1ccc(O)cc1 ?
11

Also CC(=O)c1ccc2c(c1)C1C(Cl)C(Sc3ccccc3[N+](=O)[O-])CC1C(C(=O)O)N2 (stereo not drawn) , if possible.
21.4

* * *

Measured inhibition accompanies every entry in the list below.
# Measured on: G-protein coupled receptor 55 (Homo sapiens) (UniProt Q9Y2T6)
# Assay text: GPR55 antagonists blocking LPI-driven arrestin recruitment, primary screen, imaging, U2OS, beta-arrestin-GFP, LPI agonist (AID 2013);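 also: U2OS cells stably carrying GPR55 and arrestin-GFP stimulated by 5 µM LPI near EC80; imaged beta-arrestin-GFP aggregate spots per cell after agonist stimulation; plate controls were LPI-stimulated DMSO wells for no effect and DMSO wells without LPI for full effect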
# Test settings: U2OS GPR55 beta-arrestin-GFP translocation imaging, LPI antagonism; at 10 µM; active compounds read high
In all, about 290,000 compounds went through this assay and about 370 (0.13%) were called active. What follows is part of a selection rich in actives, with near analogues and random picks from the rest. Entries with a potency or affinity are not part of this list.
Respond numerically; units are % and should not be typed.

Check out these entries, answers already filled in.
> print(dat)
                                 cpd.smiles  value.observed
1  O=C1NC(=O)N(CCc2ccc(F)cc2)C(=O)/C1=C/c1ccco1            95.4
2   CCn1nc(-c2ccccc2)nc2c(=O)n(C)c(=O)nc1-2            18.7
3  Cc1ccccc1-n1c(O)c(/C=C2/C(c3ccccc3)=Nc3ccccc32)c(=O)[nH]c1=O              83
4               Cn1ncnc2c(=O)n(C)c(=O)nc1-2            79.3

Now for another entry.
Recorded inhibition of Cc1cccc(-n2c(O)c(/C=C3/C(c4ccccc4)=Nc4ccccc43)c(=O)[nH]c2=O)c1 , please.
74.4
